A collection of variants and their measured protein stability index
B1: FBXO3 (parent)
chain: AGGFQQRQGLKYCLPLTFCIHTGL

variants of: B1; experiment: protein stability index of a GFP-peptide fusion (GPS, HEK-293T) (PSI 1-6); higher = more stable; conditions: c terminus: a fixed tail appended;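 note: lentivirally expressed fusions sorted by FACS into six bins by GFP to DsRed ratio, PSI derived from sequencing read proportions per bin multiplied by bin number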
Keep the answer to the number alone.

Sample answers from the record:
> print(dat)
                    query.sequence  observed.measurement
1  AGGFQQRQGLFYCLPLTFCIHTGL [K11F]                  3.02
2  AGGFQQRQGLKYCLPLTFTIHTGL [C19T]                  3.13
3  AGGFQQRQGLKYCLPLTFCIHLGL [T22L]                  2.59
4  AGGFQQRQGLKYCLPLTFCNHTGL [I20N]                  2.33
5  AGGFQQRQGLKYCLPLTFCITTGL [H21T]                  2.59

What value of protein stability index has been recorded for this entry: AGGFQQRQGLKYCLPLTFDIHTGL [C19D]
1.46

What value of protein stability index has been recorded for this entry: AGGFQQRQGLKYCVPLTFCIHTGL [L14V]
4.27

What value of protein stability index has been recorded for this entry: AGGFQYRQGLKYCLPLTFCIHTGL [Q6Y]
2.09

What value of protein stability index has been recorded for this entry: AGGFQQRQGLKTCLPLTFCIHTGL [Y12T]
2.2

What value of protein stability index has been recorded for this entry: AGGFQIRQGLKYCLPLTFCIHTGL [Q6I]
3.58

What value of protein stability index has been recorded for this entry: AGGFQHRQGLKYCLPLTFCIHTGL [Q6H]
3.73

What value of protein stability index has been recorded for this entry: AVGFQQRQGLKYCLPLTFCIHTGL [G2V]
2.97

What value of protein stability index has been recorded for this entry: AGGFQQRQGLKYCLPLTFCWHTGL [I20W]
1.25

What value of protein stability index has been recorded for this entry: AGGSQQRQGLKYCLPLTFCIHTGL [F4S]
2.38

What value of protein stability index has been recorded for this entry: AGGFQKRQGLKYCLPLTFCIHTGL [Q6K]
3.51
